System: 817829-284-R-J1-PDC multi-cell spheroid viability;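 further: spheroids exposed to agents for seven days before readout; percent of vehicle DMSO control viability which is 100%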
assayExplanation: Anticancer human tumor 817829-284-R-J1-PDC patient-derived colon adenocarcinoma cell line growth inhibition [PI3K]
reportedConditions: second compound 0.316 µM; first compound 0.1 µM; stronger effect = lower value
readoutLabel: viability, T/C (%)
Unit % implied. Number only.

// known answers, use as guide
INSERT INTO results (compound, systemundertest, measvalue) VALUES
  ('C#Cc1c(F)ccc2cc(O)cc(-c3ncc4c(N5CC6CCC(C5)N6)nc(OCC56CCCN5CC(F)C6)nc4c3F)c12 (centres undefined) + COc1c(OCCCN2CCOCC2)ccc2c3n(c(=NC(=O)c4cnc(N)nc4)nc12)CCN3', '817829-284-R-J1-PDC multi-cell spheroid viability', 26.3),
  ('CC(C)n1nc(-c2ccc3oc(N)nc3c2)c2c(N)ncnc21 + COc1c(OCCCN2CCOCC2)ccc2c3n(c(=NC(=O)c4cnc(N)nc4)nc12)CCN3', '817829-284-R-J1-PDC multi-cell spheroid viability', 18.7),
  ('CCCS(=O)(=O)Nc1ccc(F)c(C(=O)c2c[nH]c3ncc(-c4ccc(Cl)cc4)cc23)c1F + COc1c(OCCCN2CCOCC2)ccc2c3n(c(=NC(=O)c4cnc(N)nc4)nc12)CCN3', '817829-284-R-J1-PDC multi-cell spheroid viability', 19.6);

Okay, next one:
Q) Return reported viability, T/C; argument: CCN1CCN(Cc2ccc(Nc3ncc(F)c(-c4cc(F)c5nc(C)n(C(C)C)c5c4)n3)nc2)CC1 + COc1c(OCCCN2CCOCC2)ccc2c3n(c(=NC(=O)c4cnc(N)nc4)nc12)CCN3
A) 21.2
